target: KRAS G12D (Homo sapiens (Human), UniProt P01116+P62937, G12D); assay: Ras-Raf disruption/FRET/MOA assay (BRAF RBD, Cyclophilin A); format: biochemical; conditions: read-out: KRAS G12D FRET IC50
Sequence (P01116 other isoform, or with tags, fused parts or gaps G12D): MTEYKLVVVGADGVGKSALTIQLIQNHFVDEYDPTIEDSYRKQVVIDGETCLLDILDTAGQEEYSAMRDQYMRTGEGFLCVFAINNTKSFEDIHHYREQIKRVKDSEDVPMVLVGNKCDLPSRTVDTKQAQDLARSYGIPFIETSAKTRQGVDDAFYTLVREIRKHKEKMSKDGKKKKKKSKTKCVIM
Sequence (P62937 whole entry): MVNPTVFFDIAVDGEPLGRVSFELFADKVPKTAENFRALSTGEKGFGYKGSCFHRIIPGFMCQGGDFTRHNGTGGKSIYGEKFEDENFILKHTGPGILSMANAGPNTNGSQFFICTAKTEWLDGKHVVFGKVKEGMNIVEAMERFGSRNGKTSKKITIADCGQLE
pIC50: −log10 of the molar value.
Property name: pIC50

The compound listed as CCn1c(-c2cccnc2[C@H](C)OC)c2c3cc(ccc31)-c1csc(n1)C[C@H](NC(=O)[C@H](C(C)C)N(C)C(=O)[C@H]1CCN(CCO)C1)C(=O)N1CCC[C@H](N1)C(=O)OCC(C)(C)C2 [Compound A110] shows pIC50 equal to 5.00 to 6.00

Form field pIC50, entry CCn1c(-c2cccnc2[C@H](C)OC)c2c3cc(ccc31)-c1csc(n1)C[C@H](NC(=O)[C@H](C(C)C)N(C)C(=O)N1CCN(C(C)=O)CC1)C(=O)N1CCC[C@H](N1)C(=O)OCC(C)(C)C2 [Compound A291] : 6.00 to 7.00

pIC50 reported for this compound CCn1c(-c2cccnc2[C@H](C)OC)c2c3cc(ccc31)-c1cc(O)cc(c1)C[C@H](NS(=O)(=O)c1cn(C)c(C)n1)C(=O)N1CCC[C@H](N1)C(=O)OCC(C)(C)C2 [Compound A197] : < 5.00

get_value(item= CCn1c(-c2cc(N3CCN(C)CC3)cnc2[C@H](C)OC)c2c3cc(ccc31)-c1csc(n1)C[C@H](NC(=O)[C@H](C(C)C)N(C)C(=O)N1CC(C3COC3)C1)C(=O)N1CCC[C@H](N1)C(=O)OCC(C)(C)C2 [Compound A465] , readout=pIC50) returns 6.00 to 7.00

The reported value for CCn1c(-c2cnccc2COC)c2c3cc(ccc31)-c1cc(O)cc(c1)C[C@H](NC(=O)[C@H](C(C)C)N(C)C(=O)CN/C(N)=N/C#N)C(=O)N1CCC[C@H](N1)C(=O)OCC(C)(C)C2 [Compound A62] in terms of pIC50 is 6.00 to 7.00
